# target.system: SARS-CoV full length Spike (SARS-CoV, UniProt P59594 14-1190)
Binary label based on median fluorescence intensity, fold over isotype control with cut-off 1 fold over isotype: below gives label 1, not below gives label 0.

Worked examples, 3 binders total:
binder	classification
mAb 1075 (antibody, V domains shown) VH: QVQLVQSGAEVKKPGASVKVSCKVSGYTLIELSMHWVRQAPGKGLEWMGGFDPEDGETIYAQKFQGRVTMTEDTSTDTAYMELSSLRSEDTAVYYCATEWAYYGSGSYLGYWGQGTLVTVSS VL: EIVMTQSPATLSVSPGERATLSCRASQSVSSNLAWFQQKPGQAPRLLIYGASTRVTVIPARFSGSGSGTEFTLTISSLQSEDFAVYYCQQYNNWPRTFGQGTKVEIKR	label 1
mAb 1135 (antibody, V domains shown) VH: EVQLVESGGGLVQPGRSLRLSCAASGLTFEDYAMHWVRQVPGKGLEWVSGISWNSGTIGYADSVKGRFIISRDNAKNSLYLQMRSLRAEDTALYYCAKDVGFGELLYYAFDIWGQGTMVTVSS VL: QSALTQPASVSGSPGQSITISCTGTSSDVGGYNYVSWYQQHPGKAPKLMIYDVSNRPSGVSNRFSGSKSGNTASLTISGLQAEDEADYYCSSYTSSSTVVFGGGTKLTVLG	label 1
mAb 1149 (antibody, V domains shown) VH: QVQLVQSGAEVKKPGASVKVSCKASGYTFASYDINWVRQATGQGPEWMGWMIPNIGNTGYAQKFQGRVTMTRNTSISTAYMELSSLTSEDTAVYYCARVSRLFNDFGLRHEAPVDFWGQGTRVTVSS VL: QSVLTQPPSVSGAPGQRVTISCTGSSSNIGAGYDVHWYQQLPGTAPKLLIYGYSSRPSGVPDRFSGSKSGTSASLAITGLQAEDEADYYCQSYDSSLSVLFGGGTKLTVLG	label 0

Asked: Lab log: compare recorded median fluorescence intensity, fold over isotype control with 1 fold over isotype; is it strictly lower for mAb 923 (antibody, V domains shown) VH: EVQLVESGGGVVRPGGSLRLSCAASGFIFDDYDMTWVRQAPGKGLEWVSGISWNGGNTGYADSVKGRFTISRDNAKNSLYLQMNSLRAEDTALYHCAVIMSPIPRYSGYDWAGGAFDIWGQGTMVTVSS VL: SSELTQDPAVSVALGQTVRITCQGDSLRSYYASWYQQKPGQVPILVIYDKNNRPSGIPDRFSGSSSGNTASLTITGAQAEDEADYYCNSRDSSGNAVVFGGGTKLTVLG ?
Given back: label 0

Asked: Lab log: compare recorded median fluorescence intensity, fold over isotype control with 1 fold over isotype; is it strictly lower for mAb 1037 (antibody, V domains shown) VH: QITLKESGPTLVKPTQTLTLTCTFSGFSLSTSGVGVGWIRQPPGKALEWLALIYWDDDKRYSPSLKSRLTITKDTSKNQVVLTMTNMDPVDTATYYCAHHTITRINDYWGQGTLVTVSS VL: QSALTQPASVSGSPGQSITISCTATSSDVGAYNYVSWYQQHPGKAPKLMIYDVSKRPSGVSNRFSGSKSGNTASLTISGLQAEDEADYYCSSYTSSSTVFGGGTKLTVLG ?
Given back: label 0

Asked: Lab log: compare recorded median fluorescence intensity, fold over isotype control with 1 fold over isotype; is it strictly lower for mAb 896 (antibody, V domains shown) VH: EVQLVESGGGVVQPGGSLRLSCAASGFTFDDYAMHWVRQVPGKGLEWVSLISGDGGSTYYADSVKGRFTISRDNSKNSLYVQMNSLRTEDTALYYCVKDRGGSGWDLNHYYYGMDVWGQGTTVTVSS VL: DIQLTQSPSFLSASVGDRVTVTCRASQGISSYLAWYQQKPGKAPKLLIYAAYTLQSGVPSRFSGSGSETEFTLTISSLQPEDFATYYCQQVKSYPLTFGGGTKVEIKR ?
Given back: label 1

Asked: Lab log: compare recorded median fluorescence intensity, fold over isotype control with 1 fold over isotype; is it strictly lower for mAb 1495 (antibody, V domains shown) VH: QVQLVESGGGVVQPGRSLRLSCTASGFTFSSYAMHWVRQAPGKGLEWVAVISYDGNNKYYGDSVKGRFTISRDNSKNTLYLQMNSLRAEDTAVYYCAKGADTPHYSGYHFLSVGYYFYGMDVWGQGTTVTVSS VL: DIQMTQSPSSLSASVGDRVTITCRASQSISYYLNWYQQKPGKAPQLLIYAASSLQSGVPSRFSGSRSGTDFTLTISSLQPEDFATYYCQQSYSTPFTFGPGTKVDIKR ?
Given back: label 0

Asked: Lab log: compare recorded median fluorescence intensity, fold over isotype control with 1 fold over isotype; is it strictly lower for mAb 1036 (antibody, V domains shown) VH: QVQLVQSGAEVKKPGSSVKVSCKASGGTLSSYTISWVRQAPGQGLEWMGRIIPILGIADYAQKFQGRVTITADKSTTTAYMDLSSLGSEDTALYYCASAPKDWSSGFDYYYGMDVWGQGTMVTVSS VL: DIVMTQTPLSLSVTPGQPASISCKSSQSLLNSDGKTYLYWYLQKAGQPPQLLIYEVSNRFSGVPERFSGSGSGTDFTLKISRVEAEDVGVYYCMQSVQLPPYTFGQGTKLEITR ?
Given back: label 0

Asked: Lab log: compare recorded median fluorescence intensity, fold over isotype control with 1 fold over isotype; is it strictly lower for mAb 936 (antibody, V domains shown) VH: EVQLVESGGGLVQPGRSLTLSCAGSGFTFDDYAMHWVRQAPGKGLEWVSGISWNSGSIGYADSVKGRFTISRDNAKNSLYLQMNSLRAEDTALYYCAKDVSYDSSGYYNNAFDIWGQGTMVTVSS VL: DIQLTQSPSFLSASVGDRVTITCRASQGISSYLAWYQQKPGKAPKLLIYAASTLQSGVPSRFSGSGSGTEFTLTISSLQPEDFATYYCQQLYSYPVTFGQGTRLEIKR ?
Given back: label 1

Asked: Lab log: compare recorded median fluorescence intensity, fold over isotype control with 1 fold over isotype; is it strictly lower for mAb 1404 (antibody, V domains shown) VH: QITLKESGPTLVKPTQTLTLTCTFSGFSLSISGVGVGWLRQPPGKALEWLALIYWDDDKRYSPSLKSRLTISKDTSKNQVVLKMTNIDPVDTATYYCAHHSISTIFDHWGQGTLVTVSS VL: QSALTQPASVSGSPGQSITISCTATSSDVGDYNYVSWYQQHPGKAPKLMIFEVSDRPSGISNRFSGSKSGNTASLTISGLQAEDEADYYCSSYTTSSAVFGGGTKLTVLG ?
Given back: label 1
